experiment: in vivo; settings: female, NIH Swiss, mouse, brain, iv, 100 mg/kg
RECORDED ENDPOINT: Kp

- [N-]=[N+]=Nc1ncnc2c1ncn2[C@@H]1O[C@H](CO)[C@@H](O)[C@@H]1O [Compound 6-AAP, 9-(β-D-arabinofuranosyl)-6-azidopurine]: 0.02

###

test: Pharmacokinetics in mouse serum after iv and oral administration of cordycepin or its azide derivative; type: in vivo, mice; settings: female, NIH Swiss, in vivo; mouse serum; after iv azide derivative 100 mg/kg; read-out: AUC0→∞ iv
RECORDED ENDPOINT: AUC(0-inf) (ng·h/mL)

• Nc1ncnc2c1ncn2[C@@H]1O[C@H](CO)C[C@H]1O [Cordycepin, 3′-deoxyadenosine, reference compound] = 2170

Values compiled from patent US6949521B2.
